Just for reference, the supplement of paper PMC7411054 is where these values come from.

- Tested on: A549-CANX-COX4
- ASSAY TEXT: lowest phenotypically active concentration; higher = less potent
- EXPERIMENTAL CONTEXT: treatment time: 24 h
Where a name gives a salt, the structure may show the parent alone.
MEASURED ATTRIBUTE: lowest phenotypically active concentration (µM)

• COCC(=O)O[C@]1(CCN(C)CCCc2nc3ccccc3[nH]2)CCc2cc(F)ccc2[C@@H]1C(C)C = 9
• Oc1ccc(-c2nc(-c3ccc(F)cc3)c(-c3ccncc3)[nH]2)cc1 = 3
• COc1cc(Br)c(Nc2nc(-c3c(C)nc4ncccn34)cs2)c(Br)c1 = 1
• O=c1cc(-c2ccccc2)oc2c(O)c(O)ccc12 [7,8-Dihydroxyflavone] = 9
• Cc1cn(CCN2CCN(c3ccccc3-c3cc(C#N)cc(C(=O)NCCCN4CCCC4)c3)CC2)c2ccccc12 = 3
• CCc1cc(-c2n[nH]c(C)c2-c2ccc3c(c2)OCCO3)c(O)cc1O = 3
• O=C1NC(=O)C(c2ccccc2[N+](=O)[O-])=C1Nc1ccc(O)c(Cl)c1 = 9
• O=C(CCCCCCC(=O)Nc1cccnc1)NO [Pyroxamide] = 3
• C=CC(=O)N1CCC[C@@H](n2nc(-c3cccc(C(=O)Nc4ccc(C(C)C)c(C)c4)c3)c3c(N)ncnc32)C1 = 3
• CC(C)(C)c1cc(C(=O)/C=C/c2ccc(C(=O)O)cc2)cc(C(C)(C)C)c1 = 9
• CCCCNNC(=O)c1ccc(Br)cc1 = 3
• OC[C@H]1O[C@@H](n2cnc3c(NCc4ccco4)ncnc32)[C@H](O)[C@@H]1O [Kinetin riboside] = 3
• O=C1Nc2ccc(F)cc2C1=C1Nc2ccccc2C1=NO = 1
• CC[C@@H](N)CNc1ccnc(-c2cc(-c3cnn(C)c3)ccc2O)n1 = 3
• Cn1cnc2c(F)c(Nc3ccc(Br)cc3Cl)c(C(=O)NOCCO)cc21 = 1
• C=CC(=O)Nc1cccc(Nc2nc(Nc3ccc(Oc4ccnc(C(=O)NC)c4)cc3)ncc2F)c1 = 9
• CCCCc1oc2ccccc2c1C(=O)c1cc(I)c(OCCN(CC)CC)c(I)c1 = 9
• O=C1NC(=O)[C@@H](c2cn3c4c(cccc24)CCC3)[C@@H]1c1c[nH]c2ccccc12 [tivantinib] = 1
• Clc1ccc(N/N=C(\c2ccccc2)c2ccccn2)nc1 = 3
• CC(=O)Nc1ccc(C(=O)Nc2ccccc2N)cc1 = 1
• Cc1cc(/N=N/c2ccc(S(=O)(=O)Nc3ccccn3)cc2)c(N)cc1O = 9
• CCc1cncnc1N1CCN(Cc2nc3cc(C(F)(F)F)ccc3[nH]2)CC1 = 9
• CNc1nc(-c2ccc3c(N)n[nH]c3c2)cc(N2C[C@@H](C(=O)NC3CCCCC3)CC[C@H]2C)n1 = 3
• COc1ccc(S(=O)(=O)N(CCO)c2ccccc2CN(C)C/C=C/c2ccc(Cl)cc2)cc1 = 9
• C=CC(=O)Nc1cccc(CN2C(=O)N(c3c(Cl)c(OC)cc(OC)c3Cl)Cc3cnc(NCCCCN(CC)CC)nc32)c1 [FIIN 1 hydrochloride] = 3

====

- Test system: A549-CANX-COX4
- ASSAY TEXT: phenotypically active (imaging signature differs from DMSO and reproducible) at any of 0.3-9 uM (binary (1 = active, 0 = inactive)); higher = active
- EXPERIMENTAL CONTEXT: treatment time: 24 h
Where a name gives a salt, the structure may show the parent alone.
MEASURED ATTRIBUTE: phenotypically active

* CC1(C)CCC(C)(C)c2cc(C3(c4ccc(C(=O)O)cc4)OCCO3)ccc21 | 0
* CC[N+](C)(C)c1cccc(O)c1 [edrophonium] | 0
* CCCC(=O)Nc1ncnc2c1ncn2[C@@H]1O[C@@H]2COP(=O)(O)O[C@H]2[C@H]1OC(=O)CCC [Dibutyryl-cAMP, sodium salt] | 0
* NC(=O)Nc1sc(-c2ccc(F)cc2)cc1C(N)=O | 1
* Cc1cc(Nc2cc(N3CCN(C)CC3)nc(Sc3ccc(NC(=O)C4CC4)cc3)n2)[nH]n1 | 1
* CC(C(=O)Nc1cccc(/N=C/c2c(O)ccc3ccccc23)c1)c1ccccc1 (centres undefined) [Salermide] | 0
* Oc1ccc(-c2nc(-c3ccc(F)cc3)c(-c3ccncc3)[nH]2)cc1 | 1
* CC(C)c1ccc(NC(=O)Cn2cnc3c2c(=O)n(C)c(=O)n3C)cc1 | 0
* O=c1c(O)c(-c2ccc(O)cc2)oc2cc(O)cc(O)c12 [Kaempferol] | 0
* CC(=O)Oc1ccccc1C(=O)O [aspirin] | 0
* CCOC(=O)Nc1ccc2c(c1)N(C(=O)CCN1CCOCC1)c1ccccc1S2 [moracizine] | 0
* CC[C@@H]1C(=O)OC[C@@H]1Cc1cncn1C [Pilocarpine hydrochloride] | 0
* CC(C)[C@H](N)C(=O)OCC(CO)OCn1cnc2c(=O)[nH]c(N)nc21 (some centres undefined) [valganciclovir] | 0
* CC(C)(C)Nc1nc(Nc2ccc(C(N)=O)cc2)cc(N)c1C#N | 1
* C=C1CC[C@@H]2[C@](C)(CO)[C@H](O)CC[C@@]2(C)[C@@H]1C/C=C1/C(=O)OC[C@H]1O [Andrographolide] | 1
* CC(C)(Oc1ccc(C2CC2(Cl)Cl)cc1)C(=O)O (centres undefined) [ciprofibrate] | 0
* C[C@H](NCCc1ccc(O)cc1)[C@H](O)c1ccc(O)cc1 [ritodrine] | 0
* COc1ccc(-c2cnc(-c3cccc4c3-c3ccccc3C4=O)o2)cc1 | 1
* NCC(=O)Nc1ccc(-n2nc(C(F)(F)F)cc2-c2ccc3c(ccc4ccccc43)c2)cc1 | 1

====

- Tested on: HepG2-CANX-COX4
- ASSAY TEXT: phenotypically active (imaging signature differs from DMSO and reproducible) at any of 0.3-9 uM (binary (1 = active, 0 = inactive)); higher = active
- EXPERIMENTAL CONTEXT: treatment time: 24 h
Counter-ions that a name gives are not always drawn.
MEASURED ATTRIBUTE: phenotypically active

* CC[C@H](C)[C@H](NC(=O)OCc1ccccc1)C(=O)N[C@@H](CCC(=O)OC(C)(C)C)C(=O)N[C@@H](C)C(=O)N[C@H](C=O)CC(C)C | 1
* CCN(CCO)CCCOc1ccc2c(Nc3cc(CC(=O)Nc4cccc(F)c4)n[nH]3)ncnc2c1 | 1
* NC1=NCC2c3ccccc3Cc3ccccc3N12 (configuration not stated) [epinastine] | 0
* CC[C@H](C)C(=O)O[C@H]1C[C@H](O)C=C2C=C[C@H](C)[C@H](CC[C@@H](O)C[C@@H](O)CC(=O)O)[C@H]21 | 0
* O=C(O)Cc1cccc(OCCCN(Cc2cccc(C(F)(F)F)c2Cl)CC(c2ccccc2)c2ccccc2)c1 [GW 3965 hydrochloride] | 1
* CNCC(O)c1ccc(OC(=O)C(C)(C)C)c(OC(=O)C(C)(C)C)c1 (configuration not stated) | 0
* COc1ccc(-c2cc3c(C)nc(N)nc3n([C@H]3CC[C@H](OCCO)CC3)c2=O)cn1 | 1

====

- System: WPMY1-CANX-COX4
- ASSAY TEXT: lowest phenotypically active concentration; higher = less potent
- EXPERIMENTAL CONTEXT: treatment time: 24 h
In this section we review reported lowest phenotypically active concentration values for a set of compounds.
MEASURED ATTRIBUTE: lowest phenotypically active concentration (µM)

* CN1CCC(CN2c3ccccc3Sc3ccccc32)C1 (centres undefined) | 9
* CNCCCC12CCC(c3ccccc31)c1ccccc12 | 9
* CC(C)n1c(/C=C/[C@@H](O)C[C@@H](O)CC(=O)O)c(-c2ccc(F)cc2)c2ccccc21.CC(C)n1c(/C=C/[C@H](O)C[C@H](O)CC(=O)O)c(-c2ccc(F)cc2)c2ccccc21 [Fluvastatin sodium] | 1

====

Below: a set of entries, each annotated with reported phenotypically active.
- Test system: A549-CANX-COX4
- ASSAY TEXT: phenotypically active (imaging signature differs from DMSO and reproducible) at any of 0.3-9 uM (binary (1 = active, 0 = inactive)); higher = active
- EXPERIMENTAL CONTEXT: treatment time: 24 h
Structures can show the parent of a compound that is named as a salt.
MEASURED ATTRIBUTE: phenotypically active

* C[C@](N)(Cc1ccc(O)c(O)c1)C(=O)O | 0
* CC(C)[N@+]1(C)[C@@H]2CC[C@H]1C[C@@H](OC(=O)C(CO)c1ccccc1)C2 (stereo partly drawn) | 0
* O=C(CCCN1CCC(O)(c2ccc(Cl)cc2)CC1)c1ccc(F)cc1 | 0
* C[C@@H](CO)CCC[C@@H](C)[C@H]1CC[C@H]2[C@@H]3CC=C4C[C@@H](O)CC[C@]4(C)[C@H]3CC[C@]12C [27-Hydroxycholesterol] | 0
* CC(C)NC[C@H](O)COc1cccc2ccccc12 [(S)-(-)-Propranolol hydrochloride] | 0
* COc1ccc([C@@H]2CC(=O)c3c(O)cc(O[C@@H]4O[C@H](CO[C@@H]5O[C@@H](C)[C@H](O)[C@@H](O)[C@H]5O)[C@@H](O)[C@H](O)[C@H]4O)cc3O2)cc1O | 0
* Cc1ccc(C(=O)c2cc(O)c(O)c([N+](=O)[O-])c2)cc1 | 0
* Cc1cc2sc(NC(=O)Cc3ccccc3)nc2cc1Cl | 0
